Tested on: HASPIN;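 further: KINOMEscan kinase panel screen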
Construct: gene GSG2
Experimental Conditions: concentration: 1 μM,replicates: in singlicate; n = 1
# if value of %Inh reaches 30%, tag class 1; if it stays below, tag class 0

- Molecule: "Nc1nc(Nc2ccccc2)cc(-c2ccc3c(N)n[nH]c3c2)n1"
  System Name: "HASPIN"
  Discrete Label: "class 1"
- Molecule: "O=C(NCCNc1ccnc(NCc2ccc(F)cc2)n1)c1cc2ccccc2s1"
  System Name: "HASPIN"
  Discrete Label: "class 0"
- Molecule: "O=C(NCCCN1CCOC1=O)c1cnc(NCc2cc(Cl)ccc2Cl)nc1NC1CCCC1"
  System Name: "HASPIN"
  Discrete Label: "class 0"
- Molecule: "Cl.Oc1cc(-c2nc(-c3ccccc3)[nH]c2-c2ccncc2)ccc1Cl"
  System Name: "HASPIN"
  Discrete Label: "class 0"
- Molecule: "Cc1ccc2c(-c3ccncc3)c(-c3ccc(F)cc3)nn2c1.Cl"
  System Name: "HASPIN"
  Discrete Label: "class 0"
- Molecule: "CCn1c(-c2nonc2N)nc2c(C#CC(C)(C)O)nc(OCCN)cc21.Cl.Cl"
  System Name: "HASPIN"
  Discrete Label: "class 0"
- Molecule: "NC(=O)c1cc(-c2ccccc2)cc2c(C3CCNCC3)c[nH]c12"
  System Name: "HASPIN"
  Discrete Label: "class 1"
- Molecule: "CN(C)CCOc1ccc(-c2cc(-c3c[nH]nc3-c3ccccn3)ccn2)cc1"
  System Name: "HASPIN"
  Discrete Label: "class 0"
- Molecule: "CC(C)N1C(=O)Cc2cc(Nc3ncc(C(F)(F)F)c(NCc4cccc(S(C)(=O)=O)c4)n3)ccc21"
  System Name: "HASPIN"
  Discrete Label: "class 0"
- Molecule: "CN(C)CC(O)COc1ccc(Nc2nccc(-c3cnn4nc(N5CCOCC5)ccc34)n2)cc1 (stereo not drawn)"
  System Name: "HASPIN"
  Discrete Label: "class 1"
- Molecule: "CC(C)Nc1cc(-c2ccc3c(N)n[nH]c3c2)nc(N)n1"
  System Name: "HASPIN"
  Discrete Label: "class 1"
- Molecule: "Cc1n[nH]c2ccc(-c3cc(OC[C@@H](N)Cc4ccccc4)cnc3-c3ccoc3)cc12.O=C(O)C(F)(F)F.O=C(O)C(F)(F)F"
  System Name: "HASPIN"
  Discrete Label: "class 1"
- Molecule: "CNC(=O)c1ccccc1Sc1ccc2c(/C=C/c3ccccn3)n[nH]c2c1"
  System Name: "HASPIN"
  Discrete Label: "class 0"
- Molecule: "C[C@@H](Oc1cc(-c2cnn(C3CCNCC3)c2)cnc1N)c1c(Cl)ccc(F)c1Cl"
  System Name: "HASPIN"
  Discrete Label: "class 0"
